TARGET_SYSTEM: Peptidyl-prolyl cis-trans isomerase A (Homo sapiens)
Sequence (P62937 whole entry): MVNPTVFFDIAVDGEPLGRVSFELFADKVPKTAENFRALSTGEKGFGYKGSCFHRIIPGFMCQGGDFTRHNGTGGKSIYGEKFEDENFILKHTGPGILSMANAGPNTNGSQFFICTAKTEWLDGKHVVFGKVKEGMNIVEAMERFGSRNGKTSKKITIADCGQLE
MEASURED_ATTRIBUTE: IC50 (µM)
Write the answer as a number in µM, unit excluded.

Form: Entry = `O=C(Nc1ccc([N+](=O)[O-])cc1)Nc1ncccc1OCc1ccccc1` | System = Peptidyl-prolyl cis-trans isomerase A (Homo sapiens) | IC50 = ____ 10
